# Test system: adipocytes
# methodSummary: Triglyceride accumulation assay in adipocytes
# Format: cell-based, human
# conditionDescription: differentiating adipocytes transfected with oligomeric compound; Table 75
In the oligonucleotide strings, read from the 5' end, every base follows the letter of its sugar. An asterisk marks phosphorothioate; unmarked linkages are phosphodiester. Other units and linkages are bracketed, terminal groups are in braces. A string of capitals states the bases alone. e = 2'-O-(2-methoxyethyl) (MOE); [5mC] = 5-methylcytosine
Listed below: TG (triglyceride accumulation) values for each entry.
reportedEndpoint: TG (triglyceride accumulation)

1) 327946 (antisense eA*eG*eG*e[5mC]*eG*eA*eA*eG*eG*eA*eT*eG*eA*e[5mC]*eA*eA*eA*eG*eG*eG*eA*eA) [compound 327946]: 82 percentage of untreated control (UTC)
2) 327896 (antisense eA*e[5mC]*eA*eG*eT*eT*e[5mC]*eT*eT*e[5mC]*eA*eA*e[5mC]*eT*eG*eG*e[5mC]*eA*eG*e[5mC]*eT*eT) [compound 327896]: 22 percentage of untreated control (UTC)
3) 341800 (antisense AAGCCCAAAAGGAGAAUUCUUUG; all 2'-MOE, all phosphorothioate, methylation of C and T or U not given here) [compound 341800]: 18 percentage of untreated control (UTC)
4) 341799 (antisense ACCUAAUAUAUCAAACAUAUCA; all 2'-MOE, all phosphorothioate, methylation of C and T or U not given here) [compound 341799]: 98 percentage of untreated control (UTC)
5) 327916 (antisense eT*eG*eG*e[5mC]*eA*eT*eT*e[5mC]*eA*e[5mC]*e[5mC]*eG*e[5mC]*eG*eT*eG*e[5mC]*e[5mC]*eT*eT*eA*eA) [compound 327916]: 56 percentage of untreated control (UTC)

---

Reported values of % cells in cell cycle phase subG1 for individual entries
# System: B16-F10 cells
# methodSummary: Cell cycle assay in B16-F10 cells
# Type: cell-based, mouse
# conditionDescription: 150 nM, 48 hours, relative to untreated control
In the oligonucleotide strings, read from the 5' end, every base follows the letter of its sugar. An asterisk marks phosphorothioate; unmarked linkages are phosphodiester. Other units and linkages are bracketed, terminal groups are in braces. A string of capitals states the bases alone. e = 2'-O-(2-methoxyethyl) (MOE); [5mC] = 5-methylcytosine; d = 2'-deoxy (DNA)
reportedEndpoint: % cells in cell cycle phase subG1 (%)

1) 327933 (antisense eA*eA*eG*eG*eG*eA*eT*eT*e[5mC]*e[5mC]*eT*eG*eG*eG*eA*eA*eA*eA*e[5mC]*eT*eG*eG*eA*e[5mC]) [compound 327933]: 104
2) 345395 (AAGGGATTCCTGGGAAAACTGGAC; sugars from the 5' end e5 d10 e9, all phosphorothioate, methylation of C not given here) [compound 345395]: 147
3) 328403 (antisense eA*eG*eG*e[5mC]*e[5mC]*dT*dA*dT*dT*d[5mC]*d[5mC]*dT*dG*dT*dA*eG*e[5mC]*eA*eA*eA) [compound 328403]: 112
4) 285717 (antisense TCGGTTCTTTCCAAGGCTGA; chemistry not given here) [compound 285717]: 627
5) 327902 (antisense eG*eG*e[5mC]*eT*eG*eT*e[5mC]*eA*eA*eT*eT*e[5mC]*eA*eT*eA*eG*eG*eT*e[5mC]*eA*eG) [compound 327902]: 151
6) 328759 (antisense eG*eA*eG*eG*eG*dA*dT*dT*dG*dT*dA*dT*dG*dA*dA*e[5mC]*eA*eT*e[5mC]*eT) [compound 328759]: 132
7) 25691 (antisense eG*e[5mC]*e[5mC]*eA*eA*dG*dG*d[5mC]*dG*dT*dG*dA*d[5mC]*dA*dT*eG*eA*eT*eA*eT) [compound 25691]: 316
8) 328744 (antisense e[5mC]*eG*eG*eA*eT*d[5mC]*d[5mC]*dT*dG*dT*dT*dA*d[5mC]*d[5mC]*dT*e[5mC]*eA*e[5mC]*e[5mC]*eA) [compound 328744]: 153
9) 327905 (antisense e[5mC]*eA*eG*eA*e[5mC]*eT*e[5mC]*e[5mC]*eG*eG*eT*eG*eG*eA*eA*eT*eG*eA*eA*eG*eG*eA) [compound 327905]: 142

---

# System: follistatin
# methodSummary: Follistatin mRNA expression in HepG2 cells
# Assay type: cell-based, human
# conditionDescription: Experiment 2, insulin treated: HepG2 cells transfected with oligomeric compound, 1 nM insulin for four hours; UTC + 1 nM insulin = 100
In the oligonucleotide strings, read from the 5' end, every base follows the letter of its sugar. An asterisk marks phosphorothioate; unmarked linkages are phosphodiester. Other units and linkages are bracketed, terminal groups are in braces. A string of capitals states the bases alone. e = 2'-O-(2-methoxyethyl) (MOE); [5mC] = 5-methylcytosine; d = 2'-deoxy (DNA)
Binary classification by Follistatin mRNA expression, with 80 as an inclusive lower bound for 1; all other cases are 0.

1) 327911 (antisense eG*e[5mC]*eT*eA*e[5mC]*e[5mC]*eT*eG*e[5mC]*eA*e[5mC]*eT*eG*eT*eA*eA*eG*e[5mC]*eA*e[5mC]*eT*eT*eT*eT) [compound 327911]: 0
2) 328774 (antisense eG*e[5mC]*eA*e[5mC]*e[5mC]*d[5mC]*dG*d[5mC]*d[5mC]*dT*d[5mC]*dA*d[5mC]*dA*d[5mC]*eA*e[5mC]*eG*eT*eG) [compound 328774]: 0
3) 328342 (e[5mC]*eA*eA*eT*eT*dG*d[5mC]*dG*d[5mC]*dT*dA*d[5mC]*dA*dG*dA*eA*e[5mC]*eT*eG*eT) [compound 328342]: 1
4) 328776 (antisense eT*e[5mC]*e[5mC]*eT*eG*dT*dA*dA*dT*dT*dA*dT*dA*dG*dG*e[5mC]*eT*eA*eG*e[5mC]) [compound 328776]: 1
5) 327946 (antisense eA*eG*eG*e[5mC]*eG*eA*eA*eG*eG*eA*eT*eG*eA*e[5mC]*eA*eA*eA*eG*eG*eG*eA*eA) [compound 327946]: 1
6) 327918 (antisense e[5mC]*eT*eA*eG*eT*eA*e[5mC]*eA*eT*e[5mC]*eA*eT*e[5mC]*eT*eA*eT*eA*e[5mC]*eT*eG*eT*eA) [compound 327918]: 0
7) 328358 (eA*eG*eT*eT*eT*dG*dA*dA*dG*dT*dG*dT*d[5mC]*dA*d[5mC]*eA*eG*e[5mC]*eG*e[5mC]) [compound 328358]: 1
8) 327957 (antisense e[5mC]*eA*e[5mC]*eA*eA*eG*eT*eT*e[5mC]*eG*eG*eA*eT*e[5mC]*eT*eA*e[5mC]*eG*eG*eG*eT*eT) [compound 327957]: 0
9) 328397 (antisense eT*eT*eG*eA*eT*d[5mC]*d[5mC]*dA*dT*dA*dT*dG*d[5mC]*dA*dA*e[5mC]*eA*eA*eG*eG) [compound 328397]: 0

---

Examples of substances with documented Expression of mir-15a pri-miRNA (% UTC) follow.
# Test system: mir-15a pri-miRNA
# methodSummary: mir-15a pri-miRNA expression in HepG2 cells (real-time RT-PCR)
# Format: cell-based, human
# conditionDescription: HepG2 cells, 100 nM, real-time RT-PCR
In the oligonucleotide strings, read from the 5' end, every base follows the letter of its sugar. An asterisk marks phosphorothioate; unmarked linkages are phosphodiester. Other units and linkages are bracketed, terminal groups are in braces. A string of capitals states the bases alone. e = 2'-O-(2-methoxyethyl) (MOE); [5mC] = 5-methylcytosine; d = 2'-deoxy (DNA)
reportedEndpoint: Expression of mir-15a pri-miRNA (% UTC)

1. 347977 (eT*eT*eG*eT*eA*dT*dT*dT*dT*dT*dG*dA*dG*dG*d[5mC]*eA*eG*e[5mC]*eA*e[5mC]) [compound 347977]: 111.3
2. 347966 (eT*eG*e[5mC]*eT*eA*d[5mC]*dT*dT*dT*dA*d[5mC]*dT*d[5mC]*d[5mC]*dA*eA*eG*eG*eT*eT; antisense) [compound 347966]: 39.2
3. 347967 (eG*e[5mC]*eA*e[5mC]*e[5mC]*dT*dT*dT*dT*d[5mC]*dA*dA*dA*dA*dT*e[5mC]*e[5mC]*eA*e[5mC]*eA) [compound 347967]: 152.3
4. 347971 (eA*e[5mC]*eA*eA*eT*dA*dT*dG*dG*d[5mC]*d[5mC]*dT*dG*d[5mC]*dA*e[5mC]*e[5mC]*eT*eT*eT; antisense) [compound 347971]: 92.8
5. 347973 (eG*eG*e[5mC]*eA*eG*d[5mC]*dA*d[5mC]*dA*dA*dT*dA*dT*dG*dG*e[5mC]*e[5mC]*eT*eG*e[5mC]) [compound 347973]: 143.3
6. 347968 (e[5mC]*e[5mC]*eT*eG*e[5mC]*dA*d[5mC]*d[5mC]*dT*dT*dT*dT*d[5mC]*dA*dA*eA*eA*eT*e[5mC]*e[5mC]; antisense) [compound 347968]: 8.4
7. 347976 (eT*eA*eT*eT*eT*dT*dT*dG*dA*dG*dG*d[5mC]*dA*dG*d[5mC]*eA*e[5mC]*eA*eA*eT; antisense) [compound 347976]: 73.0
8. 347980 (eA*eG*eA*eT*e[5mC]*dA*dG*dA*dT*d[5mC]*d[5mC]*dT*dT*dG*dT*eA*eT*eT*eT*eT; antisense) [compound 347980]: 3.6
9. 347979 (eA*eG*eA*eT*e[5mC]*d[5mC]*dT*dT*dG*dT*dA*dT*dT*dT*dT*eT*eG*eA*eG*eG; antisense) [compound 347979]: 74.9
10. 347974 (eT*eG*eA*eG*eG*d[5mC]*dA*dG*d[5mC]*dA*d[5mC]*dA*dA*dT*dA*eT*eG*eG*e[5mC]*e[5mC]; antisense) [compound 347974]: 98.1
11. 347969 (eT*eG*eG*e[5mC]*e[5mC]*dT*dG*d[5mC]*dA*d[5mC]*d[5mC]*dT*dT*dT*dT*e[5mC]*eA*eA*eA*eA; antisense) [compound 347969]: 39.5
12. 347964 (eT*eA*eT*eA*eA*d[5mC]*dA*dT*dT*dG*dA*dT*dG*dT*dA*eA*eT*eA*eT*eG; antisense) [compound 347964]: 13.7
13. 347978 (eT*e[5mC]*e[5mC]*eT*eT*dG*dT*dA*dT*dT*dT*dT*dT*dG*dA*eG*eG*e[5mC]*eA*eG; antisense) [compound 347978]: 51.1
